Measured growth by item
tested on: SN12C renal; assay: NCI-60 one-dose screen, 48 h (100 = growth as untreated, 0 = no growth, -100 = all killed); details: 10 µM unless noted
Compounds without any hit were thinned out: in the full panel of roughly 83,000, 20% have a hit.

{"compound": "O=C(CCl)N1CCCc2ccccc21", "growth, %": 93.8}
{"compound": "COc1ccc2c(c1)OC13Oc4cc(OC)ccc4C=C1CCCCC3=C2", "growth, %": 93.6}
{"compound": "O=C1CS/C(=N/c2nnc(-c3ccc(O)cc3)s2)N1", "growth, %": 101}
{"compound": "CCCn1cc(/C=N\\N=C2\\C(=O)Nc3ccc(C)cc32)c2ccccc21", "growth, %": 49.9}
{"compound": "Cc1ccn2c3c(c(C(=O)O)c2c1)C(=O)c1ccccc1C3=O", "growth, %": 78.8}
{"compound": "COc1ccc(-c2[nH]c3ccccc3c2C=C(C#N)C#N)cc1", "growth, %": 44.6}
{"compound": "N#Cc1c(-c2ccc(Cl)cc2)cc(-c2cc3ccccc3o2)nc1SCC(=O)c1ccc(Cl)cc1", "growth, %": 94.2}
{"compound": "COc1cc(NCC(=O)Nc2cc(Nc3ccc(C)cc3)ncn2)c(Cl)c(OC)c1Cl", "growth, %": 88.1}
{"compound": "CN(C)C(CNc1oc(-c2cccc3ccccc23)nc1C#N)c1ccco1 (stereo unspecified)", "growth, %": 103}
{"compound": "COc1ccc(C2CC(c3ccc(OC)cc3O)=NN2c2ccc(S(N)(=O)=O)cc2)cc1 (stereo unspecified)", "growth, %": 54.2}
{"compound": "CCOc1ccccc1C(=O)/C=C/c1cc2ccccc2[nH]c1=O", "growth, %": -20.9}
{"compound": "CCOC(=O)c1sc(/N=C2\\NC(=O)/C(=C/c3ccc(N4CCN(C)CC4)cc3)S2)nc1C", "growth, %": 111}
{"compound": "CN(C)[C@@H]1C(=O)C(C(N)=O)=C(O)[C@@]2(O)C(=O)C3=C(O)c4c(O)cc(CN5CCc6ccccc6C5)c(Cl)c4C[C@H]3C[C@@H]12", "growth, %": -73}
{"compound": "CCOC(=O)NC(Cc1ccccc1)c1ccccc1 (stereo unspecified)", "growth, %": 106}
{"compound": "NS(=O)(=O)c1ccc(N2Cc3cc(Cl)ccc3OC3=C2C(=O)N(CC2CCCCC2)C3=O)cc1", "growth, %": -65.3}
{"compound": "C/C(=C\\c1cnc(C)s1)[C@@H]1C[C@@H]2O[C@@H]2CCC[C@H](C)[C@H](O)[C@@H](C)C(=O)C(C)(C)[C@@H](O)CC(=O)O1", "growth, %": 54}
{"compound": "CCCCCCC/C=C/[C@H]1O[C@]23C(=O)C[C@@]4(C[C@@H](OC5OC(CO)C(O)C(O)C5O)C[C@@H]4[C@H]2C=C1C)OC3=O (stereo partly specified)", "growth, %": 26.7}
{"compound": "Nc1c(C(=O)Nc2ccccc2)sc2nc3c(cc12)CN(C(=O)OCc1ccccc1)CC3", "growth, %": 66}
{"compound": "CN1CCN(CC#CCOC(=O)CNC(=O)[C@]23CCC(C)(C)C[C@H]2C2=CC[C@@H]4[C@@]5(C)CC[C@H](O)C(C)(C)[C@@H]5CC[C@@]4(C)[C@]2(C)CC3)CC1", "growth, %": 82.2}
{"compound": "Nc1c(C(=O)Nc2cccc3ccccc23)sc2nc3c(cc12)COCC3", "growth, %": 59.9}
{"compound": "CN1CC=C(c2cc(NC(=O)Nc3ccc(Oc4ccnc(NC(=O)C5CC5)c4)c(F)c3)cc(C(F)(F)F)c2)CC1", "growth, %": 2.74}
{"compound": "Cc1ccc(CS/C(=C\\c2ccc([N+](=O)[O-])cc2)C(=O)c2ccc(F)cc2)cc1", "growth, %": 45.9}
{"compound": "C#CC[C@@H]1C[C@]2(C)[C@H]3CC[C@@H]4[C@H]5[C@H](C(=C)C)CC[C@]5(C(=O)O)CC[C@@]4(C)[C@]3(C)CC[C@H]2C(C)(C)[C@H]1O", "growth, %": 39.3}
{"compound": "Cc1cnc(SCc2ccc(Cl)cc2)[nH]c1=S", "growth, %": 103}
{"compound": "COc1cc2nc3c(=O)n(-c4ccc(C#N)cc4)cnn3c(=O)c2cc1OC", "growth, %": 99}
{"compound": "Cc1cccc(C)c1Nc1nnc(-c2ccc(F)cc2)o1", "growth, %": 105}
{"compound": "O=C(CCCCCCCCC(=O)Nc1cccc(C2=NCCN2)c1)Nc1cccc(C2=NCCN2)c1", "growth, %": 81.6}
{"compound": "C#C[C@@]1(O)[C@@H](CO)O[C@@H](n2cc(-c3ccco3)c3c(N)ncnc32)[C@@H]1O", "growth, %": 71.8}
{"compound": "CC1(c2ccccc2Cl)NC(=O)NC1=O (stereo unspecified)", "growth, %": 105}
{"compound": "CO[C@@]12C=C[C@@]34CCC(=O)N3c3ccccc3[C@@H](O1)C4C2", "growth, %": 95.5}
{"compound": "CCc1c(C(=O)N[C@@H](C(=O)OCc2ccccc2)C(C)O)[nH]c2ccc(Cl)cc12 (stereo partly specified)", "growth, %": 66.6}
{"compound": "COc1cc(NC(=O)c2cc(O)c(C/C=C(\\C)CCC=C(C)C)c(O)c2)cc2c1O[C@]1(C)CC[C@@H](O)C(C)(C)[C@H]1C2", "growth, %": 20.5}
{"compound": "CCC1=C[C@H]2CN(CCc3c([nH]c4ccccc34)[C@@](C(=O)OC)(c3cc4c(cc3OC)N(C)[C@H]3[C@@](O)(C(=O)OC)[C@H](OC(C)=O)[C@]5(CC)[C@@H]6C[C@@H]6CN6CC[C@]43[C@@H]65)C2)C1", "growth, %": 30.1}
{"compound": "CCCCN(CCCC)CC(CN(CC)CC)OC(=O)Nc1ccccc1 (stereo unspecified)", "growth, %": 94.4}
{"compound": "Cn1nc(C(F)(F)F)c(-c2cc(C(F)(F)F)cc(C(F)(F)F)c2)c1-c1ccc(OCc2ccc(Cl)cc2)cc1O", "growth, %": 7.93}
{"compound": "COCCc1n(Cc2ccc3ccccc3c2)c2ccccc2[n+]1Cc1ccc2ccccc2c1", "growth, %": -68}

Data provenance is PubChem BioAssay (NCI).
